- Species: Rattus norvegicus
- ASSAY_METHOD_TEXT: Open TG-GATES - Regimen: Single
- Format: toxicity, organism-based, Sprague-Dawley
- Parameters: regimen Single, gender Male, age 6 weeks
- RUN_CONDITIONS: in vivo, po, 0 mg/kg, 3 h, tissue Plasma, route gavage, dose level Control
This listing pairs compounds with measured TP.
PARAMETER: TP

1. C[C@](N)(Cc1ccc(O)c(O)c1)C(=O)O    5.6 g/dL
2. Oc1ncnc2[nH]ncc12    5.6 g/dL
3. CCC(C)(C)C(=O)O[C@H]1C[C@@H](C)C=C2C=C[C@H](C)[C@H](CC[C@@H]3C[C@@H](O)CC(=O)O3)[C@H]21    5.6 g/dL
4. CCN1CCCC1CNC(=O)c1cc(S(N)(=O)=O)ccc1OC (stereo unspecified) [SULPIRIDE]    5.1 g/dL
5. CC(=N)S [THIOACETAMIDE]    5.5 g/dL
6. CC(C)C(=O)Nc1ccc([N+](=O)[O-])c(C(F)(F)F)c1 [FLUTAMIDE]    5.5 g/dL

Data origin: ChEMBL document CHEMBL3885861
